B1: CPEB3 Ribozyme (parent)
chain: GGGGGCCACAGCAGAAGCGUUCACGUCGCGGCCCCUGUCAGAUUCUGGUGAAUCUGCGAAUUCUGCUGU

Variants of: B1
assay.summary: self-cleavage, relative activity (ratio to wild type); higher = more cleavage; co-transcriptional
observation.type: self-cleavage

sequence.input	observation.type	endpoint.result
GGGGGCCACAGCAGCAGCGUUCACGUCGCGGCCCCUGGCAGAUUCUGGUGAAUCUGCGAAUUCUGCUGU [A15C U38G]	self-cleavage	0.292
GGGGGCCACAGCAGAAUCGUUCACGUCGCGGCCCCUGUCAGAUUCUGGUGAAUCUGCGAAUUCUGCUAU [G17U G68A]	self-cleavage	0.875
GGGGGCCACAGCAGAAGCGUUCACGUCGCGGCCCCUGUCAGACUCUGGUGAAUUUGCGAAUUCUGCUGU [U43C C54U]	self-cleavage	0.905
GGGGGCCACAGCAGAAGCGUUCACGUCGCGGCCCCUGUCAGAUUCUGGUGUAUCUGCGAAAUCUGCUGU [A51U U61A]	self-cleavage	0.932
GGGGGCCACAGAAGAAGCGUUCAGGUCGCGGCCCCUGUCAGAUUCUGGUGAAUCUGCGAAUUCUGCUGU [C12A C24G]	self-cleavage	0.138
GGGGGCCACAGCUGAAGCGUUCACGUCGCGGCCCCUGUCAGAUUCUGGUGAAUCUGCGAAUUCUGCCGU [A13U U67C]	self-cleavage	0.66
UGGGGCCACAGCAGAAGCGUUUACGUCGCGGCCCCUGUCAGAUUCUGGUGAAUCUGCGAAUUCUGCUGU [G1U C22U]	self-cleavage	0.102

Numbers sourced from the RNAGym collection of RNA variant scans (doi:10.7554/elife.80360).
